- Tested on: Hs-578T
- assay: NCI tumour cell line growth inhibition, 48 h
Activity calls are given as the source filed them. Cut-off read from the data, not from the text of the source: active = GI50 up to about 1.1 µM and inactive = higher. Peptide text beside a SMILES is read from it. * marks the point of attachment. Boc = CC(C)(C)OC(=O)*; OBn = c1ccc(CO*)cc1; Bn = c1ccc(C*)cc1
// classify into active, inactive

Could you please tell me the result logged for CCCNC(=O)CCC(C)C1CCC2C3C(C[C@H](OC(C)=O)[C@]12C)[C@@]1(C)CCC2(C[C@H]1C[C@H]3OC(C)=O)OOC1(CC[C@]3(C)C4C[C@H](OC(C)=O)[C@]5(C)C(C(C)CCC(=O)NCCC)CCC5C4[C@H](OC(C)=O)C[C@@H]3C1)OO2 (some centres not stated) in this assay?
inactive

I'd appreciate the recorded outcome for C=CCOc1ccccc1C1(O)c2ccccc2C2=NCCCN21 (configuration not stated) from this test.
inactive

Identify the outcome logged in this assay for the molecule shown: CC1=C(C#N)C(=O)N(/N=C/c2ccc(Cl)cc2)C(=O)/C1=c1\o/c(=C2/C(=O)N(/N=C/c3ccc(Cl)cc3)C(=O)C(C#N)=C2C)c2nccnc12
inactive

Which result was noted for this molecule in the test: CCCCCCCCCCCCCCCCC(C(=O)O)C(O)(CC(=O)O)C(=O)O (configuration not stated)
inactive

Hi, do you know how COc1ccccc1/C=C1\CCC(CN(C)C)C1=O (configuration not stated) came out in this test?
inactive

Assay outcome for CC(C)CC(NC(=O)C(CCC(=O)OCc1ccccc1)NC(=O)OC(C)(C)C)C(=O)NC(COCc1ccccc1)C(=O)NC(Cc1ccccc1)C(=O)O (configuration not stated) (Boc-E(OBn)LS(Bn)F-OH; configuration not given here) : what was it?
inactive

What call does the record list for Cc1nc(C)c(N2CCN(Cc3ccccc3)CC2)c(O)n1 ?
inactive

How did this test come out for CO[C@H]1C[C@H](O[C@H]2CC[C@]3(C=O)[C@H]4CC[C@]5(C)[C@@H](C6=CC(=O)OC6)CC[C@]5(O)[C@@H]4CC[C@]3(O)C2)O[C@H](C)[C@H]1O[C@@H]1O[C@H](CO[C@@H]2O[C@H](CO)[C@@H](O)[C@H](O)[C@H]2O)[C@@H](O)[C@H](O)[C@H]1O ?
active

Would you mind telling me which call this test gave c1ccc2c(c1)SC1Sc3ccccc3[S+]21 (configuration not stated) ?
inactive

Any idea what this test logged for N#CC(C#N)=C(N)/C(C#N)=C/c1ccc2[nH]ccc2c1 ?
inactive

Called result for [O-][S+](Nc1ccccc1)c1ccc(N2CCOCC2)cc1 (configuration not stated)
inactive

Kindly provide the recorded test outcome for the following molecule: c1cc(CNCCN2CCNCC2)ccn1
inactive

Record lookup: outcome of this test for N#CC(c1ccccc1)N(CCCCCCN(C(=O)c1ccccc1)C(C#N)c1ccccc1)C(=O)c1ccccc1 (configuration not stated) ?
inactive

Recorded test call requested for O=c1oc(-c2ccc(O)cc2)cc2cc(O)ccc12
inactive

Name the outcome recorded for ClC1(Cl)C(c2ccccc2)C1c1ccccc1 (configuration not stated) in the assay.
inactive

// return assay outcome for CCC(=O)C(c1ccccc1)c1ccccn1 (configuration not stated)
inactive

Which result was noted for this molecule in the test: c1ccc(N/N=C2\CC(c3ccccc3)Oc3ccccc32)cc1 (configuration not stated)
inactive

====

- Test system: HOP-62
- assay: NCI tumour cell line growth inhibition, 48 h
Active and inactive are the calls of the source. Rule as the data show it: active = GI50 up to about 1.1 µM and inactive = higher.
Hello, when you answer, please use one of the following outcomes: 1.0 for active, 0.0 for inactive

Would you mind telling me which call this test gave CC(C)c1ccc2c(c1)CCC1C(C)(CN)CCCC21C (stereo not given) ?
0.0

Tell me the assay call for COc1ccccc1/C=C1\CCC(CN(C)C)C1=O (stereo not given) please.
0.0

Recorded test outcome, item Cc1cc(S(=O)(=O)Nc2nc(N)nc(N3N=CCC3C)n2)c(S)cc1Cl (stereo not given)
0.0

// outcome(item) with item = Cc1cccc2c1NC(=O)/C2=N\Nc1ccccc1[N+](=O)[O-]
0.0

Query: recorded result category for COc1c2c(c(O)c3c4c(c(C)cc13)C1OC3(C(OC)OC5CC(C)(O)C(OC6CC(C)(O)C(O)C(C)O6)C(C)O5)OC1C(OC)(O4)C31CO1)C(=O)C(O)CC2OC1CC(C)(O)C(OC(C)=O)C(C)O1 (stereo not given) in this test
1.0

Which result was noted for this molecule in the test: CSc1ncnc2c1cnn2Cc1cn(COCC(O)CO)nn1 (stereo not given)
0.0

Test call, this molecule: CCCn1c(C23CC4CC(CC(C4)C2)C3)nc2ccc(Cl)cc2c1=O
0.0

Could you check what this test reported for N#CC(NNC(=O)Cc1ccccc1)c1ccc(O)cc1 (stereo not given) ?
0.0

Hey, what did the test say about CC(C)NC(C)Cc1ccccc1 (stereo not given) ?
0.0

Which outcome was assigned to C#CCN(C(=O)C(F)(F)F)c1ccc(C(=O)c2ccc(N(CC#C)C(=O)C(F)(F)F)cc2)cc1 in this test?
0.0

Called result for CCOC(=O)NC(=O)c1cn(-c2ccc(CCOC(=O)NCCCCCCNC(=O)OCCc3ccc(-n4c(=O)[nH]cc(C(=O)NC(=O)OCC)c4=O)cc3)cc2)c(=O)[nH]c1=O
0.0

Any idea what this test logged for CCOC(=O)CC1(C(=O)OCC)c2[nH]c3ccccc3c2CCN1Cc1ccccc1 (stereo not given) ?
0.0

Dear all, I need the recorded test outcome for Nc1nc(-c2ccccc2)nc2c1[n+]([O-])c1ccccc1[n+]2[O-] , thank you.
0.0

Given COc1cccc(C2c3cc4c(cc3OC(NNc3ccccc3)C2C)OCO4)c1O (stereo not given) , state the outcome it received in this test.
0.0

I'd appreciate the recorded outcome for C#Cc1nc(N)c2ncn(C3OC(COS(N)(=O)=O)C(O)C3O)c2n1 (stereo not given) from this test.
1.0

I would be grateful if you could indicate the recorded call for N=C(N)C1CN(CCc2c[nH]c3ccccc23)C(=O)NC1=O (stereo not given) .
0.0

Lab log entry: CCOc1ccc2nc3nc(O)nc(C)c3c(NC(C)(CO)CO)c2c1 — outcome as called in the assay?
0.0

# outcome recorded in this test, key = COC1(OC)CC2C(=O)N(Cc3ccccc3)C1CC2S(=O)(=O)c1ccccc1 (stereo not given)
0.0

// outcome(item) with item = S=C(N/N=C/c1ccccn1)Nc1ccc(Cl)cc1
1.0

Could you check what this test reported for Nc1ncnc2c1ncn2C=C=CCO ?
0.0

Hi, sorry to bother you, what did the test record for O=[N+]([O-])c1ccc(/C=N/C2CCCCC2)cc1 ?
0.0

Give the logged outcome of this assay for the following molecule: C#CCn1c(=O)c(C#N)c(O)c2cc3ccccc3nc21
0.0

What did the test return for CC(C)(C)OC(=O)NCC(c1c[nH]c2cc(Br)ccc12)c1c[nH]c2cc(Br)ccc12 ?
0.0

Assay outcome for CCC(C)(O)c1cn(-c2cccc(S(=O)(=O)O)c2)nn1 (stereo not given) : what was it?
0.0

Hi, sorry to bother you, what did the test record for Oc1cc(C2OCCCO2)cc(O)c1O ?
0.0

Tell me the recorded outcome of this test for CC[C@H](C)C1=C(O)[N@+]2([O-])Oc3ccc(-c4c(O)c(O)c(-c5ccc(O)cc5)c(OC(C)=O)c4OC(C)=O)cc3O[C@]2([C@@H](C)CC)C(=O)N1O .
0.0

What outcome does the record of this test show for C=C=C(C)C(=O)N(C(C)C)C(C)C ?
0.0

What outcome does the record of this test show for COc1ccccc1/N=N/C(C(=O)c1ccccc1)C(=O)c1ccccc1 ?
0.0

What did the test return for N#CC(C#N)=C(N)/C(C#N)=C/c1ccc2[nH]ccc2c1 ?
0.0

Please indicate how the test categorized O=C1/C(=C/c2ccc(O)c(O)c2)CCC/C1=C\c1ccc(O)c(O)c1 .
0.0
